Hello, the source for this data is patent US7935722B2, in case you need it.

Target Entity: human androgen receptor (AR) (Homo sapiens, UniProt P10275)
Construct: expressed in transfected cells; host or cells: mouse myoblast C2C12 cells, transiently co-transfected
Sequence (P10275 whole entry): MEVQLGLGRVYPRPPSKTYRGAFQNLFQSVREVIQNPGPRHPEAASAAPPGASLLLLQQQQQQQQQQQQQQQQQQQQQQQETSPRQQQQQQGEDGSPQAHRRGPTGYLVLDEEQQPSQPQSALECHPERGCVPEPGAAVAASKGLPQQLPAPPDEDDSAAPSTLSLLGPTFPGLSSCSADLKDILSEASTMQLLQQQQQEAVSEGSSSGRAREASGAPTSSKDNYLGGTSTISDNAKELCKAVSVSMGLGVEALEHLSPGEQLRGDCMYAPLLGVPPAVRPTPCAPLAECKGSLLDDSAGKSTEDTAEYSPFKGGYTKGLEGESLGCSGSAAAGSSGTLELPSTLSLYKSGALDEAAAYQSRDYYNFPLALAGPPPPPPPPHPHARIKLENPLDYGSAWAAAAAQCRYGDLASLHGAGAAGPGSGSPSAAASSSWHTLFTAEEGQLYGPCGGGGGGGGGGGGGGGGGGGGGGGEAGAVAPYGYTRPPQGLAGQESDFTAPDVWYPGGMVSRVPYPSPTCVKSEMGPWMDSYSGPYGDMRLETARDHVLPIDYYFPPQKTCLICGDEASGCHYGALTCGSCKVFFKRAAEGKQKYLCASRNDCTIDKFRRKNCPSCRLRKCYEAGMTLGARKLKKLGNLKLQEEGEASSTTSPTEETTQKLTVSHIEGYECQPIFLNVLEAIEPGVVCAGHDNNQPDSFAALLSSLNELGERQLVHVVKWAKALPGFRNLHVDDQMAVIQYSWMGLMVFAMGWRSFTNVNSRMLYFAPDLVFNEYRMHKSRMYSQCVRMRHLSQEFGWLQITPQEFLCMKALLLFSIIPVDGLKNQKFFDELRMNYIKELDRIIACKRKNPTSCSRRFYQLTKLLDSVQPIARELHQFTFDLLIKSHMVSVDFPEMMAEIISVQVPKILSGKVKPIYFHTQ
Measurement Notes: C2C12 AR/ARE reporter assay
Assay type: cell-based
Assay Context: C2C12 AR/ARE reporter assay; average of n trials; read-out: C2C12 % Efficacy
Label scheme for Emax: lower than 80% is class 0, 80% and above is class 1.

Solved entries (count: 4):
- Compound: "O=C(N[C@@H]1CCc2c(c3cc(/C=N/O)ccc3n2Cc2cccc(F)c2)C1)C1CC1 [Example 203]"
  Label Class: "class 0"
- Compound: "CC(C)C(=O)NC1CCc2c(c3cc(Cl)ccc3n2Cc2ccccc2[N+](=O)[O-])C1 (stereo not shown) [Example 104]"
  Label Class: "class 0"
- Compound: "CC[C@@H](C)C(=O)NC1CCc2c(c3cc(Br)ccc3n2Cc2cccc(F)c2)C1 (stereo partly shown) [Example 171]"
  Label Class: "class 0"
- Compound: "CC(C)C(=O)N[C@@H]1CCc2c(c3cc(C#N)ccc3n2Cc2cccc(F)n2)C1 [Example 183]"
  Label Class: "class 1"

Moving on to another compound below.
Would you say CC(C)C(=O)NC1CCc2c(c3cc(C#N)cc(Cl)c3n2Cc2cccc(F)c2)C1 (stereo not shown) [Example 119] shows Emax at minimum 80%?
class 1
